- assay.method.text: chemical genetic growth profiling, strain panel (AID 1159580);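 also: tested at 20 µM; growth read once vehicle control cultures reached saturation at 30 °C; 1 = growth at the plate median or of vehicle wells; lower values mean less growth of the strain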
- assay.conditions: S. cerevisiae deletion strains, growth OD, locus YDL035C, strain GPR1, active compounds read low
Screen size: about 5,500 compounds; about 2,000 (36%) were called active. Not shown: some 18% with an inconclusive outcome. Some of the results follow.
Overview of recorded normalized growth for various molecules
property.measured: normalized growth

COc1ccc(Cc2nccc3cc(OC)c(OC)cc23)cc1OC    1.01
CC(=O)OC1CCC2C3CCc4cc(O)ccc4C3CCC12C (stereo not drawn)    0.973
Fc1ccc(C(c2ccc(F)cc2)N2CCN(C/C=C/c3ccccc3)CC2)cc1    0.976
C[C@H]1C(=O)O[C@@H]2CCN3CC=C(COC(=O)[C@](C)(O)[C@]1(C)O)[C@H]23    0.999
CC(C(=O)O)c1ccc(N2Cc3ccccc3C2=O)cc1 (stereo not drawn)    1.02
CC(=O)OCC(=O)[C@@]1(O)CCC2C3CCC4=CC(=O)CC[C@]4(C)[C@@]3(F)[C@@H](O)C[C@@]21C (stereo partly drawn)    0.992
CCC(=O)O[C@H]1CCC2C3CCc4cc(O)ccc4C3CC[C@@]21C (stereo partly drawn)    0.975
CCOc1ccc(Cc2nccc3cc(OCC)c(OCC)cc23)cc1OCC    0.956
O=C(CCCN1CC=C(n2c(=O)[nH]c3ccccc32)CC1)c1ccc(F)cc1    0.972
O=c1[nH]c2ccccc2n1C1CCN(CCCC(c2ccc(F)cc2)c2ccc(F)cc2)CC1    0.968
NCCS    1.02
CC(=O)Oc1ccc2c(c1)CCC1C2CC[C@@]2(C)C1CC[C@@H]2OC(C)=O (stereo partly drawn)    0.971
CN1CCN(C(c2ccccc2)c2ccccc2)CC1    0.984
